Hello, the source for this data is ChEMBL document CHEMBL1141693, in case you need it.

target: Sodium- and chloride-dependent glycine transporter 2 (Homo sapiens); assay: Inhibition of [3H]glycine uptake at human glycine transporter 2 expressed in CHO cells by scintillation counter
Sequence (Q9Y345 whole entry): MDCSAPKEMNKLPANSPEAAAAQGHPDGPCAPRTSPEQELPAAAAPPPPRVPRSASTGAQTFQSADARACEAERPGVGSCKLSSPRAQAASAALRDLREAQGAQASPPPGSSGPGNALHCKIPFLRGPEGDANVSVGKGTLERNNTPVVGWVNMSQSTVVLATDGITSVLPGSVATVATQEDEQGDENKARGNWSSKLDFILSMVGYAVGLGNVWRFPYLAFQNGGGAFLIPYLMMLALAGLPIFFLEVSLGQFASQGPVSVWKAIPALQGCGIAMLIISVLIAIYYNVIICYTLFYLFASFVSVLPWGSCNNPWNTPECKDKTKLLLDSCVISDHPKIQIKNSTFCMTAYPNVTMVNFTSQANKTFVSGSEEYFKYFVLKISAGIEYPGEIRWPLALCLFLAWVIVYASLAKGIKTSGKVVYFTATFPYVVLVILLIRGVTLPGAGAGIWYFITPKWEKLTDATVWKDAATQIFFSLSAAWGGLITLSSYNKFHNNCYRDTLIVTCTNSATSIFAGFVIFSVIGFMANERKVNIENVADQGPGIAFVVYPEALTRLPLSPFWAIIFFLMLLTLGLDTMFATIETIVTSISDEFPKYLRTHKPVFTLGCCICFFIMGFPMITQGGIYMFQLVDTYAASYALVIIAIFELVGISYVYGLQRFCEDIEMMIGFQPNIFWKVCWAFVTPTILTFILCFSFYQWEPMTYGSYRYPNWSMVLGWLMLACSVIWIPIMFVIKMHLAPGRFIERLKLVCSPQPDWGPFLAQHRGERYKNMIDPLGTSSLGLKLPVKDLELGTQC
measured_endpoint: EC50

>>> df
                              smiles_record  measured_endpoint      val
0  CCCS(=O)(=O)c1ccc(N2CCOCC2)c(C(=O)N2CCN(c3ccc(C(C)=O)cc3F)CC2)c1               EC50  > 30 µM
1  O=C(c1cc([N+](=O)[O-])ccc1N1CCOCC1)N1CCN(c2ncc(C(F)(F)F)cc2Cl)CC1               EC50  > 30 µM
2  CC(=O)c1ccc(N2CCN(C(=O)c3cc(S(C)(=O)=O)ccc3OC(C)C)CC2)c(F)c1               EC50  > 30 µM
